# TESTED_SYSTEM: HLA-A*0201 (human)
# PROCEDURE_DETAILS: inhibition of 125I-labelled standard peptide binding to purified HLA-A*0201, gel filtration
RECORDED_METRIC: binding affinity ratio (IC50 of standard peptide / IC50 of test peptide)
Write the number on its own, no unit after it.

Returns the measured binding affinity ratio (IC50 of standard peptide / IC50 of test peptide) for the input binder. Input: CALPERPSL (modifications not checked) [… (PSA, position 230)]
0.0001

Entry CVDLHVISNDV (modifications not checked) [… (PSA, position 169)] please
0.0001

Now consider CAQVHPQKVT (modifications not checked) [… (PSA, position 180)] .
0.0001

Hey, just so you know, these numbers are from patent US20070020327A1.
